Biological target: T1, Recombinant soluble extracellular domain of cynomolgus monkey MerTK (cynomolgus monkey, UniProt Q12866 21-505 (human entry))
T1 construct: SPR analyte; also called cMerTK; Cynomolgus MerTK
T1 chain: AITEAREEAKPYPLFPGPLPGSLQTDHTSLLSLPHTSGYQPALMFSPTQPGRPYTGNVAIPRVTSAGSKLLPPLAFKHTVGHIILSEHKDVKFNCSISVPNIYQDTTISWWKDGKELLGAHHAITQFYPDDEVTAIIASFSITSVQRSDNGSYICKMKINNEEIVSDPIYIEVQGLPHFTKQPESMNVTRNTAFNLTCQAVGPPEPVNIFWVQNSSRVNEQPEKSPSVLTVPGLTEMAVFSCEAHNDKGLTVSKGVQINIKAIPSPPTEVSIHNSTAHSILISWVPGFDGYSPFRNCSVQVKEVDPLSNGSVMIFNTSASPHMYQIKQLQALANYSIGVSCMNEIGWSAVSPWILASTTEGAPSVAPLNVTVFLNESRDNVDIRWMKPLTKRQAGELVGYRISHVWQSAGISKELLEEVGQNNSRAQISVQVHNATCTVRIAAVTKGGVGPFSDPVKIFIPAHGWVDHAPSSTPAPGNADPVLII
Test: SPR, mAb captured, soluble MerTK ECD as analyte, 37 C
Procedure: MerTK Abs were captured on the chip. Recombinant soluble forms of the extracellular domains of human, cynomolgus monkey, and mouse MerTK polypeptide were injected as analytes at multiple concentrations each. The resulting sensorgrams were double-referenced and fitted to a 1:1 Langmuir binding model with mass transport.
metric_name: t1/2 (min)
Numeric only. Scale: min

Example cases with answers are listed next.
{"columns": ["binder", "t1/2 [min]"],
 "data": [
  ["HuMAb 4K10 (antibody, human IgG1, kappa, V domains shown, Human anti-hMerTK mAb, Bin 3) VH: QVQLQQWGAGLLKPSETLSLTCAVYGGSFSGYYWSWLRQPPGKGLEWIGEISHSGSTNYNPSLKSRVTISVDTSKNQFSLKLSSVTAADTAVYYCARALSRYWYFDLWGRGTLVTVSS VL: EIVLTQSPATLSLSPGERATLSCRASQSASNYLAWYQQKPGQAPRLLIYDASNRATGIPARFSGSGSGTDFTLTISSLEPEDFAVYYCYQRSQWPISFGQGTRLEIKR", 3],
  ["Humanized MAb 2L105 (antibody, human IgG1, lambda, V domains shown, Humanized variant of moMAb 2D9, Bin 2) VH: QVTLKESGPVLVKPTETLTLTCTVSGISLSSFAISWIRQPPGKALEWLAVIWTGGGTDYNSALKSRLTISKDTSKSQVVLTMTNMDPVDTATYYCASHWYLDVWGQGTTVTVSS VL: QTVVTQEPSFSVSPGGTVTLTCRSSTGAVSTSNYANWVQQTPGQAPRGLIGGANSRAPGIPDRFSGSILGNKAALTITGAQADDESDYYCALWFSNHWVFGGGTKLTVLG", 7.7]
]}

Q: Report measured t1/2; entry is HuMAb 1B4 (antibody, human IgG1, kappa, V domains shown, Human anti-hMerTK mAb, Bin 1) VH: QLQLQESGPGLVKPSETLSLTCAVSGYSISSGNYWGWIRQSPGKGLEWIGSVDHSGSTYYSPSLKSRVTISVDTSKNQFSLKLNSVTAADTADYYCARNTMIRGVMDWFDPWGQGTLVTVSS VL: AIQLTQSPSSLSASVGDRVTITCRASQGISSALAWYQQKPGKAPKVLIYDASSLESGVPSRFSGSGSGTDFTLTISSLQPEDFATYYCQQFRSYPTFGQGTKVEIKR
Ans: 1.5
